# TEST: small-molecule binders of probe aNOTCH3, primary screen, biochemical, small-molecule microarray, 635/667 nm fluorescence (AID 1120);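 also: probe is a biotin-tagged antibody raised against NOTCH3 rather than NOTCH3 protein; score merges spot fluorescence near 667 nm with spot signal to noise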
# STUDY_CONDITIONS: higher = more signal
# key: entry, value: composite z-score
TEST_READOUT: composite z-score

[[record]]
compound = "CCCCC(CC)C(O)C1C=CC2C(=O)N(Cc3ccccc3)C(=O)C2N1n1cnnc1 (centres undefined)"
numeric_value = 0.0116

[[record]]
compound = "C=CCC(OC(C)=O)[C@@H]1[C@@H](N(Cc2ccc(-c3cccc(C(F)(F)F)c3)o2)C(=O)c2ccc(C)cc2)c2cc(OCCCO)ccc2N1C(=O)Cc1ccc2ccccc2c1 (some centres undefined)"
numeric_value = -0.0702

[[record]]
compound = "CN(C)CCCC[C@@H]1NC(=O)[C@H]2C[C@@H](C(=O)NCCCCCCN)[C@@H](c3ccc(O)cc3)N2C1=O"
numeric_value = 0.665

[[record]]
compound = "COCCOC(=O)N1C(=O)[C@@]2(c3cc(C#CCC(C(=O)OC)C(=O)OC)ccc31)[C@H](c1ccccc1OCCO)N1[C@H](c3ccccc3)[C@H](c3ccccc3)OC(=O)[C@H]1[C@@H]2C(=O)N1CCN(c2ncccn2)CC1"
numeric_value = 0.225

[[record]]
compound = "C=C(/C(=C/C[C@H](OC(C)=O)c1ccccc1OCCO)c1cnc2ccccc2c1)C(C)C"
numeric_value = 0.16

[[record]]
compound = "NCCCCCNC(=O)[C@@H]1C[C@@H]2C(=O)N[C@@H](Cc3ccccc3)C(=O)N2[C@@H]1c1ccc(O)cc1"
numeric_value = -0.0716

[[record]]
compound = "CC(C)C(O)C1C=CC2C(=O)N(c3ccccc3)C(=O)C2N1Nc1ccc([N+](=O)[O-])cc1 (centres undefined)"
numeric_value = 1.2

[[record]]
compound = "COCCCNC(=O)[C@@H]1c2ccccc2C(=O)N(Cc2ccccc2Cl)[C@H]1c1ccc(CO)cc1"
numeric_value = -0.147

[[record]]
compound = "C=CCOC(=O)[C@H]1[C@@H]2C(=O)O[C@@H](c3ccccc3)[C@@H](c3ccccc3)N2[C@@H](c2ccc(OCCOC(=O)[C@H]3C[C@H]4C(=O)N[C@@H](CCCCNC(C)=O)C(=O)N4[C@H]3c3ccc(O)cc3)cc2)[C@]12C(=O)Nc1ccc(I)cc12"
numeric_value = 0.0876

[[record]]
compound = "CCC(CC)C(O)C1C=CC2C(=O)NC(=O)C2N1Nc1ccccn1 (centres undefined)"
numeric_value = -0.0219

[[record]]
compound = "Cc1ccc(S[C@]2(C(=O)NC3CC3)CC(=O)N(Cc3ccccc3)[C@@H]2c2ccc(CO)cc2I)cc1"
numeric_value = -0.209

[[record]]
compound = "C[N+](C)(C)CCCCNC(=O)[C@@H]1C[C@@H]2C(=O)N[C@@H](Cc3ccccc3)C(=O)N2[C@@H]1c1cccc(OCCO)c1"
numeric_value = -0.217

[[record]]
compound = "[N-]=[N+]=Nc1ccccc1[C@H]1OC(c2ccc(OCCCO)cc2)=N[C@@]1(CCS(=O)(=O)c1ccccc1)C(=O)NCC(O)CO (some centres undefined)"
numeric_value = 0.102

[[record]]
compound = "CC1(C)[C@@H]2CC(C(O)C3C=CC4C(=O)N(Cc5ccccc5)C(=O)C4N3n3cnnc3)=C[C@H]1C2 (some centres undefined)"
numeric_value = -0.0079


Values were extracted from PubChem BioAssay.
